Values from ChEMBL document CHEMBL5291721

Target: 5-hydroxytryptamine receptor 2B (Homo sapiens, UniProt P41595); note: assay procedure not described here
Sequence (P41595 whole entry): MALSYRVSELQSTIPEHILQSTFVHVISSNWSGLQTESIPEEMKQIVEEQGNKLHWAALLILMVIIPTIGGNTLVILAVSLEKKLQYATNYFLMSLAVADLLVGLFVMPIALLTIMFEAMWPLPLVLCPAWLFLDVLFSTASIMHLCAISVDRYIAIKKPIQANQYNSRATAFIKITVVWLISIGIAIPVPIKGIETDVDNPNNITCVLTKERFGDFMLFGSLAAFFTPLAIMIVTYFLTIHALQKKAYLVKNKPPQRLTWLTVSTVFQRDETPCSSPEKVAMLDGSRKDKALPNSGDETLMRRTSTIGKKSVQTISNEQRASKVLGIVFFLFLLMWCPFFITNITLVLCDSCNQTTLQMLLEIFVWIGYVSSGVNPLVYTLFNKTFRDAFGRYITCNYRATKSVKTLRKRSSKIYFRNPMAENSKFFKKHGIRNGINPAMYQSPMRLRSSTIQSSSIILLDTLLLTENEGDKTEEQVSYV
Format: functional, cell-based
quantityName: AC50

>>> experimentalvalue("COc1ccc(C(Cl)=C(c2ccc(OC)cc2)c2ccc(OC)cc2)cc1")
"> 30 µM"
>>> experimentalvalue("COC(=O)[C@H]1[C@H]2C[C@@H]3c4[nH]c5ccccc5c4CCN3C[C@H]2C[C@@H](OC(=O)c2cc(OC)c(OC)c(OC)c2)[C@@H]1OC")
"> 10 µM"
>>> experimentalvalue("CC(=O)Oc1ccccc1C(=O)O")
"> 10 µM"

Moving on to another compound below.
Ask: Identify measured AC50 associated with CCC(=O)c1ccc2c(c1)N(CC(C)N(C)C)c1ccccc1S2 (centres undefined)
Result: 0.23 µM

---

Data export: AC50 values recorded with Kappa-type opioid receptor (Homo sapiens).
Sequence (P41145 whole entry): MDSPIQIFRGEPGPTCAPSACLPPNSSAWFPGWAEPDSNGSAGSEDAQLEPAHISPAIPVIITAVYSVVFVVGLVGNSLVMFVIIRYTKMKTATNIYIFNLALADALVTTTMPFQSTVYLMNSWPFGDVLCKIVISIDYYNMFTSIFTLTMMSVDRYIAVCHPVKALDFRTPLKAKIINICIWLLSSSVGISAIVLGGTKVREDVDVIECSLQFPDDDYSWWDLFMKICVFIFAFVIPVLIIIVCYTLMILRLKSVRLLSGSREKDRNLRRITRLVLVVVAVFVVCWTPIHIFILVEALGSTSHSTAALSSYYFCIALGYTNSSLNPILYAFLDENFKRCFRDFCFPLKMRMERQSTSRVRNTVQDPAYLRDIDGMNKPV

Observe how each entry below is paired with its result.
>>> experimentalvalue("O=C(O)CCCC[C@@H]1SC[C@@H]2NC(=O)N[C@@H]21")
"> 10 µM"
>>> experimentalvalue("CCCCC[C@H](O)CC[C@@H]1[C@H]2Cc3cccc(OCC(=O)O)c3C[C@H]2C[C@H]1O")
"> 30 µM"
>>> experimentalvalue("CC1(C)O[C@@H]2C[C@H]3[C@@H]4CCC5=CC(=O)C=C[C@]5(C)[C@@]4(F)[C@@H](O)C[C@]3(C)[C@]2(C(=O)CO)O1 [TRIAMCINOLONE ACETONIDE]")
"> 30 µM"

Moving on to another molecule below.
Ask: Identify measured AC50 associated with C[C@H](Cn1cnc2c(N)ncnc21)OCP(=O)(O)O [TENOFOVIR ANHYDROUS]
Result: > 30 µM

---

Biological target: 3',5'-cyclic-AMP phosphodiesterase 4D (Homo sapiens); note: assay procedure not described here
Sequence (Q08499 whole entry): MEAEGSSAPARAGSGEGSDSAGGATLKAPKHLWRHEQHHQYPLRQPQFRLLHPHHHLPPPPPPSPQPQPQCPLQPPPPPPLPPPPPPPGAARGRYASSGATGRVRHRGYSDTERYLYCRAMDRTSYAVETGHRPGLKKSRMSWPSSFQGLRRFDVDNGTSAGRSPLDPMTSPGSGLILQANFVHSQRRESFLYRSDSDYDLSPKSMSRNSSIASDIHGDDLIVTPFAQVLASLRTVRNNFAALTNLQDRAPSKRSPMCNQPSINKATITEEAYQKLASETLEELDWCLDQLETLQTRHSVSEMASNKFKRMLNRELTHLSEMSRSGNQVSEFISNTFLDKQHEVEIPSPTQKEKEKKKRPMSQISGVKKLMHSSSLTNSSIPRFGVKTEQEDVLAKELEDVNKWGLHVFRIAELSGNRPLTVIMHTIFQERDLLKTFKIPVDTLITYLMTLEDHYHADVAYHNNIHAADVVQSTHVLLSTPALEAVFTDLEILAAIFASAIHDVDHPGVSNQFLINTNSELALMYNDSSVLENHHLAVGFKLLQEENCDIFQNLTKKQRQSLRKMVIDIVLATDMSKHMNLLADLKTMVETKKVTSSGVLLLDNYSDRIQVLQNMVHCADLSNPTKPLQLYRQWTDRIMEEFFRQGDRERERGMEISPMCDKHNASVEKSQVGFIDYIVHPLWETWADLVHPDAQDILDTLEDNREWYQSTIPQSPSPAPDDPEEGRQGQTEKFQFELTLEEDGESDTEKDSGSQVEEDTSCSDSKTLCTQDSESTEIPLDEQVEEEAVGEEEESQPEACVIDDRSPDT
Type: functional
quantityName: AC50

Observe how each entry below is paired with its result.
>>> experimentalvalue("O=C(O)[C@H]1/C(=C/CO)O[C@@H]2CC(=O)N21")
"> 30 µM"
>>> experimentalvalue("CN(C)CCCC1(c2ccc(F)cc2)OCc2cc(C#N)ccc21 (stereo not given)")
"> 30 µM"
>>> experimentalvalue("CCN(CC)Cc1nccn1-c1ccc([N+](=O)[O-])cc1C(=O)c1ccccc1Cl")
"> 30 µM"
>>> experimentalvalue("Oc1cc(O)c2c(c1)O[C@H](c1ccc(O)c(O)c1)[C@@H](O)C2")
"> 30 µM"

Moving on to another compound below.
Ask: Identify measured AC50 associated with NCC1(CC(=O)O)CCCCC1
Result: > 30 µM

---

Target: 5-hydroxytryptamine receptor 2B (Homo sapiens, UniProt P41595); note: assay procedure not described here
Type: functional, cell-based
quantityName: AC50

Observe how each entry below is paired with its result.
>>> experimentalvalue("CC1=C(C(=O)O)N2C(=O)[C@@H](NC(=O)[C@H](N)C3=CCC=CC3)[C@H]2SC1")
"> 30 µM"
>>> experimentalvalue("CN(C)CCOC(c1ccc(Cl)cc1)c1ccccn1 (stereo unspecified)")
"> 30 µM"
>>> experimentalvalue("CC(=O)SCC(Cc1ccccc1)C(=O)NCC(=O)OCc1ccccc1 (stereo unspecified)")
"> 30 µM"
>>> experimentalvalue("CC(C)(CO)c1cc2cc(NC(=O)C3(c4ccc5c(c4)OC(F)(F)O5)CC3)c(F)cc2n1C[C@@H](O)CO")
"> 10 µM"
>>> experimentalvalue("CCOCC(O)COc1ccc(NC(=O)CC[S+](C)C)cc1 (stereo unspecified)")
"> 30 µM"
>>> experimentalvalue("CN(C)CCOC(=O)C(c1ccccc1)C1(O)CCCC1 (stereo unspecified) [CYCLOPENTOLATE]")
"> 10 µM"
>>> experimentalvalue("CC(NC(C)(C)C)C(=O)c1cccc(Cl)c1 (stereo unspecified)")
"> 10 µM"
>>> experimentalvalue("O=C(c1ccccc1)c1ccc2n1CCC2C(=O)O (stereo unspecified)")
"> 30 µM"

For the 5 compounds below, give their AC50 values.
1. CCCCOC(=O)C(=O)Nc1cccc(-c2nnn[nH]2)c1
2. CCN1C(=O)NC(c2ccccc2)C1=O (stereo unspecified)
3. Cc1ccc(O)c([C@H](CCN(C(C)C)C(C)C)c2ccccc2)c1
4. CCc1ccc(C(=O)C(C)CN2CCCCC2)cc1 (stereo unspecified)
5. OCCN(CCO)c1nc(N2CCCCC2)c2nc(N(CCO)CCO)nc(N3CCCCC3)c2n1

Result:
1: > 30 µM; 2: > 30 µM; 3: > 10 µM; 4: > 30 µM; 5: > 30 µM

---

Target: Adenosine receptor A2a (Homo sapiens); note: assay procedure not described here
Sequence (P29274 whole entry): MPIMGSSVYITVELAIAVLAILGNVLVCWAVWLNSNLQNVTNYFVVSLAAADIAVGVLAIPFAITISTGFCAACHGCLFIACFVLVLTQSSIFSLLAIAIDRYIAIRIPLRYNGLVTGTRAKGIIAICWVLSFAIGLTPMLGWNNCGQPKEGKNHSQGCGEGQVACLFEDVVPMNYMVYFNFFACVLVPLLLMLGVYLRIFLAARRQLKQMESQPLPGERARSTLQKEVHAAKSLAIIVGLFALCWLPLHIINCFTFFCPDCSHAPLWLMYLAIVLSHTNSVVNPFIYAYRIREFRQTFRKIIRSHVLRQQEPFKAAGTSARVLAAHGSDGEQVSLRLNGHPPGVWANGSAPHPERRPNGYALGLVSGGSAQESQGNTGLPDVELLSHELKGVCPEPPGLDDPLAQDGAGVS
quantityName: AC50

Observe how each entry below is paired with its result.
>>> experimentalvalue("NCCCCCC(=O)O")
"> 10 µM"
>>> experimentalvalue("OCC(CO)N[C@H]1C[C@](O)(CO)[C@@H](O)[C@H](O)[C@H]1O")
"> 30 µM"
>>> experimentalvalue("C[C@H](CS)C(=O)N1CCC[C@H]1C(=O)O")
"> 30 µM"
>>> experimentalvalue("CC1(C)O[C@@H]2C[C@H]3[C@@H]4CCC5=CC(=O)C=C[C@]5(C)[C@@]4(F)[C@@H](O)C[C@]3(C)[C@]2(C(=O)CO)O1 [TRIAMCINOLONE ACETONIDE]")
"> 30 µM"
>>> experimentalvalue("CCN1C(=O)NC(c2ccccc2)C1=O (centres undefined)")
"> 30 µM"

For the 8 compounds below, give their AC50 values.
1. CCOCC(O)COc1ccc(NC(=O)CC[S+](C)C)cc1 (centres undefined)
2. COc1ccc(C(Cl)=C(c2ccc(OC)cc2)c2ccc(OC)cc2)cc1
3. CCC1(CC)C(=O)NC(=O)N(C)C1=O
4. C=CC1=C(C(=O)O)N2C(=O)[C@@H](NC(=O)/C(=N\O)c3csc(N)n3)[C@H]2SC1
5. CN1CC2c3ccccc3Oc3ccc(Cl)cc3C2C1 (centres undefined)
6. CCCCCCOC(=O)NC(=N)c1ccc(NCc2nc3cc(C(=O)N(CCC(=O)OCC)c4ccccn4)ccc3n2C)cc1 [DABIGATRAN ETEXILATE]
7. C[C@]12CCC(=O)C=C1C=C[C@@H]1[C@@H]2CC[C@@]2(C)[C@H]1CC[C@@]21CCC(=O)O1
8. CC(C)(C)NCC(O)COc1cccc2c1CC(O)C(O)C2 (centres undefined)

Result:
["> 30 µM", "> 30 µM", "> 10 µM", "> 30 µM", "> 30 µM", "> 30 µM", "> 30 µM", "> 10 µM"]

For the 6 compounds below, give their AC50 values.
1. CN(Cc1ccc(C(C)(C)C)cc1)Cc1cccc2ccccc12
2. N=C(N)NC(=O)Cc1c(Cl)cccc1Cl
3. CCCCC[C@H](O)CC[C@@H]1[C@H]2Cc3cccc(OCC(=O)O)c3C[C@H]2C[C@H]1O
4. Cc1nnc2n1-c1ccc(Cl)cc1C(c1ccccc1)=NC2
5. CC(C)(N)Cc1ccccc1
6. CN1CCCN=C1/C=C/c1cccc(O)c1

Result:
1. > 10 µM
2. > 30 µM
3. > 30 µM
4. > 30 µM
5. > 30 µM
6. > 30 µM

---

Target: Kappa-type opioid receptor (Homo sapiens); note: assay procedure not described here
quantityName: AC50

>>> experimentalvalue("CC(C)C[C@H](NC(=O)[C@H](Cc1ccccc1)NC(=O)c1cnccn1)B(O)O")
"> 30 µM"
>>> experimentalvalue("CC(C)/N=c1\\cc2n(-c3ccc(Cl)cc3)c3ccccc3nc-2cc1Nc1ccc(Cl)cc1")
"14 µM"
>>> experimentalvalue("NCCCCCC(=O)O")
"> 10 µM"
>>> experimentalvalue("CN(C)CCOC(c1ccc(Cl)cc1)c1ccccn1 (centres undefined)")
"> 30 µM"
>>> experimentalvalue("CC(=O)OCC(=O)[C@@]1(O)CC[C@H]2[C@@H]3CCC4=CC(=O)CC[C@]4(C)[C@@]3(F)[C@@H](O)C[C@@]21C [FLUDROCORTISONE ACETATE]")
"> 30 µM"

For the 2 compounds below, give their AC50 values.
1. C#CCN(C)Cc1ccccc1
2. CN1C2CCCC1CC(NC(=O)c1nn(C)c3ccccc13)C2 (centres undefined)

Result:
> 30 µM
> 10 µM

For the 6 compounds below, give their AC50 values.
1. CCCCOC(=O)c1ccc(N)cc1
2. N=C(N)NC(=O)c1nc(Cl)c(N)nc1N [AMILORIDE]
3. C[C@H](CS)C(=O)N1CCC[C@H]1C(=O)O
4. CNC1(C)C2CCC(C2)C1(C)C (centres undefined)
5. CCC(NC(C)C)C(O)c1ccc(O)c(O)c1 (centres undefined)
6. COc1ccc(C(Cl)=C(c2ccc(OC)cc2)c2ccc(OC)cc2)cc1

Result:
1. > 30 µM
2. > 30 µM
3. > 10 µM
4. > 10 µM
5. 8.95 µM
6. > 30 µM

For the 3 compounds below, give their AC50 values.
1. CCN(CC)CCn1c(=O)c(Cc2ccc(OC)cc2)nc2ccccc21
2. CCN(CCO)CCCC(C)Nc1ccnc2cc(Cl)ccc12 (centres undefined) [HYDROXYCHLOROQUINE]
3. CCCCCCCC(=O)CC[C@@H]1[C@@H](C/C=C\CCCC(=O)O)[C@@H](O)C[C@H]1O

Result:
1. 5.34 µM
2. > 10 µM
3. > 30 µM
